// data source = ChEMBL document CHEMBL1201862

Test system: K562
test_description: NCI tumour cell line growth inhibition, 48 h
Active and inactive are the calls of the source. No stated cut-off is given here; in the data, active = GI50 up to about 1.1 µM and inactive = higher.
Give one outcome, nothing more. List: 1 (yes) (active), 0 (no) (inactive)

Completed entries (count: 8):
compound	group_label
O=C1CN2C(Cl)(Cl)C2(c2ccccc2)c2cc(Cl)ccc2N1CC1CC1 (stereo not drawn)	0 (no)
CCCCCCCC(=O)NCC(O)CNC(=O)CCCCCCC	0 (no)
O=C1CNNC(CSc2nc3ccc(I)cc3c(=O)n2Cc2ccccc2)=N1	0 (no)
CC1=NN(C(=O)c2ccccc2O)C(c2ccccc2Cl)C1C(=O)Nc1ccccc1 (stereo not drawn)	1 (yes)
COc1ccc(NS(=O)(=O)c2ccc(/N=C3\C=C(Nc4ccc(S(=O)(=O)Nc5ccc(OC)nn5)cc4)C(=O)c4ccccc43)cc2)nn1	0 (no)
Cc1[nH]c2ncn(/N=C/c3ccccc3O)c(=N)c2c1Cc1ccccc1	0 (no)
CCOC(=O)C(C(=S)SC)c1nn2c(=O)cc(C)nc2s1 (stereo not drawn)	0 (no)
COc1ccccc1C(N)c1ccccc1 (stereo not drawn)	0 (no)

QUERY: Look up the recorded call for `COC(=O)c1cc(C)n(NC(=O)OC(C)(C)C)c1C` in this test.
RESULT: 0 (no)

QUERY: Which outcome was entered for the compound `CCC[C@@H](O)C[C@@H]1CCC[C@H](C[C@@H](O)CC)N1C` in this test?
RESULT: 0 (no)

* * *

Test system: SNB-75
test_description: NCI tumour cell line growth inhibition, 48 h
Activity calls are given as the source filed them. Rule as the data show it: active = GI50 up to about 1.1 µM and inactive = higher.
Overview of recorded GI50 for various molecules

These recorded examples may help you get a feel for the data.
molecule	recorded_value
Cc1[nH]c2ncn(/N=C/c3ccccc3O)c(=N)c2c1Cc1ccccc1	91 µM (inactive)
Cc1cnc(-c2c[nH]c3ccccc23)nc1-c1c[nH]c2ccccc12	2.39 µM (inactive)
O=C(O)c1cc(-c2ccc3cc4c(cc3c2)OCO4)nc2ccccc12	49.7 µM (inactive)

QUERY: Given the molecule `COc1ccc(C(=O)/C=C/c2ccc(OCC(=O)N3CCN(c4ccccc4)CC3)cc2)cc1OC` , write its reported GI50.
RESULT: 3.72 µM (inactive)

QUERY: Determine from records and report GI50 for `CCOC(CCNCC(OCC)OCC)OCC`
RESULT: > 10 µM (inactive)

QUERY: Tell me measured GI50 for `COc1cc2ccc(CC(N)=O)cc2cc1OC` please.
RESULT: 40.3 µM (inactive)

* * *

System: SR
test_description: NCI tumour cell line growth inhibition, 48 h
The source made the active and inactive calls. Rule as the data show it: active = GI50 up to about 1.1 µM and inactive = higher.
measured_parameter: GI50

QUERY: # return recorded GI50 for entry CCCCC(C)C(OC(=O)CC(CC(=O)O)C(=O)O)C(CC(C)CC(O)CCCCC(O)CC(O)C(C)N)OC(=O)CC(CC(=O)O)C(=O)O (stereo not given)
RESULT: > 100 µM (inactive)

QUERY: Supply measured GI50 of `CC(=O)Nc1ccc(-c2nc3ccccc3s2)cc1I` in your reply.
RESULT: > 100 µM (inactive)

* * *

Tested on: M14
test_description: NCI tumour cell line growth inhibition, 48 h
Calls of active or inactive are those of the source. No stated cut-off is given here; in the data, active = GI50 up to about 1.1 µM and inactive = higher.
Write down the outcome that applies. Available outcomes: 1 (active), -1 (inactive)

Solved entries:
compound	system_under_test	group_label
O=C1CN2C(Cl)(Cl)C2(c2ccccc2)c2cc(Cl)ccc2N1CC1CC1 (centres undefined)	M14	-1
O=C1c2ccccc2C(=O)c2cc3c(cc21)C[S+]([O-])C3	M14	-1
COc1cc([C@@H]2c3cc4c(cc3[C@@H](Nc3ccc(Cl)cc3C(=O)c3ccccc3)[C@H]3COC(=O)[C@H]23)OCO4)cc(OC)c1OC	M14	1

QUERY: Answer briefly: the call reported for COc1cc(C(=O)NC2CCc3cc(OC)c(OC)c(OC)c3-c3ccc(OC)c(=O)cc32)cc(OC)c1OC (centres undefined) in this assay.
RESULT: 1

QUERY: Returns: the outcome recorded for `CCOC(=O)c1sc2c(c1OC(=O)c1cccs1)c(=O)n(-c1ccccc1)c(=S)n2-c1ccccc1` in this assay.
RESULT: -1
